# Test system: Mus musculus
# ASSAY NAME: Analgesic activity against acetic acid induced writhing test in mouse after peroral administration
# Format: functional
# CONDITION CONTEXT: Mus musculus, po; read-out: ED50
In this section, each of the compounds is paired with its reported ED50.

Ask: Query the reported ED50 for Mus musculus; item: CC(=O)OC(c1nc2c(C(F)(F)F)cccc2c(O)c1C(=O)Nc1nccs1)C(C)C (stereo not given)
Result: > 100 mg/kg

Ask: Query the reported ED50 for Mus musculus; item: `O=C(Nn1ccnn1)c1cnc2c(C(F)(F)F)cccc2c1O`
Result: > 50 mg/kg

Ask: Query the reported ED50 for Mus musculus; item: `CC(C)(C)c1nc2c(C(F)(F)F)cccc2c(O)c1C(=O)Nc1nccs1`
Result: > 100 mg/kg

Ask: Query the reported ED50 for Mus musculus; item: `CC(C)[C@H](N)c1nc2c(C(F)(F)F)cccc2c(O)c1C(=O)Nc1nccs1`
Result: > 100 mg/kg

New cases:
Ask: Query the reported ED50 for Mus musculus; item: CC(C)C(O)c1nc2c(C(F)(F)F)cccc2c(O)c1C(=O)Nc1ccccn1 (stereo not given)
Result: > 50 mg/kg

----------
In this section, each of the molecules is paired with its reported ED50.
# Test system: Mus musculus
# ASSAY NAME: Analgesic activity against acetic acid induced writhing test in mouse after peroral administration
# Type: functional
# CONDITION CONTEXT: Mus musculus, po; read-out: ED50

Ask: What does the record list as ED50 for `C[C@@H](N)c1nc2c(C(F)(F)F)cccc2c(O)c1C(=O)Nc1nccs1` ?
Result: > 100 mg/kg

Ask: What does the record list as ED50 for CCC(=O)OC(c1nc2c(C(F)(F)F)cccc2c(O)c1C(=O)Nc1nccs1)C(C)C (centres undefined) ?
Result: > 100 mg/kg

Ask: What does the record list as ED50 for `O=C(Nc1ncco1)c1c(C(Cl)Cl)nc2c(C(F)(F)F)cccc2c1O` ?
Result: > 25 mg/kg

Let us examine a further case.
Ask: What does the record list as ED50 for `COc1cccc2c(O)c(C(=O)Nc3nccs3)cnc12` ?
Result: > 50 mg/kg

----------
# System: Mus musculus
# ASSAY NAME: Analgesic activity against acetic acid induced writhing test in mouse after peroral administration
# Assay type: functional
# CONDITION CONTEXT: Mus musculus, po; read-out: ED50
EXPERIMENTAL READOUT: ED50

Ask: What does the record list as ED50 for `Cc1cc(NC(=O)c2c(C(F)(F)F)nc3c(C(F)(F)F)cccc3c2O)no1` ?
Result: > 50 mg/kg

New cases:
Ask: What does the record list as ED50 for CCC(OC(=O)c1cccnc1)c1nc2c(C(F)(F)F)cccc2c(O)c1C(=O)Nc1nccs1 (stereo not given) ?
Result: > 20 mg/kg

Ask: What does the record list as ED50 for `O=C(Nc1ccccn1)c1c(C(F)(F)F)nc2c(C(F)(F)F)cccc2c1O` ?
Result: > 20 mg/kg

Ask: What does the record list as ED50 for `O=C(Nc1nccs1)c1cnc2c(SC(F)(F)F)cccc2c1O` ?
Result: > 50 mg/kg

Ask: What does the record list as ED50 for `O=C(Nc1ncco1)c1cnc2c(C(F)(F)F)cccc2c1O` ?
Result: > 100 mg/kg

These entries and their values trace back to ChEMBL document CHEMBL1124161.
